# System: ragweed (common ragweed, Ambrosia elatior)
# assayComment: Test A preemergence, ragweed
# Format: in vivo
# settings: 500 g ai/ha, 0 to 100 scale (0 no effect, 100 complete control)
Examples of molecules with documented Plant response rating, Ragweed follow.
Hey, just send me the number, nothing else.

Consider the following illustrative entries.
>>> reportedvalue("CN1CC(c2cccc(Oc3ncc(F)cn3)c2)C(C(=O)Nc2ccccc2F)C1=O (single isomer, unassigned)")
50
>>> reportedvalue("O=C1NCC(c2cccc(Cn3cncn3)c2)C1C(=O)Nc1ccccc1F (stereo not shown)")
0
>>> reportedvalue("O=C1NCC(c2cccc(COc3ccccc3)c2)C1C(=O)Nc1cccc(F)c1F (stereo not shown)")
0

Kindly consider the entry below.
Asked: What value of measured Plant response rating, Ragweed is listed for O=C1NCC(c2cccc(OCC3CC3)c2)C1C(=O)Nc1ccc(F)cc1F (stereo not shown) ?
Given back: 0

====

# System: foxtail, giant (Setaria faberii)
# assayComment: Test A preemergence, giant foxtail
# Format: in vivo
# settings: 125 g ai/ha, 0 to 100 scale (0 no effect, 100 complete control)
Tick true if Plant response rating, Foxtail, Giant is 80 or greater. Tick false if Plant response rating, Foxtail, Giant is less than 80.

Below are worked cases with known answers.
>>> classlabel("CON=Cc1cccc(C2CN(C)C(=O)C2C(=O)Nc2ccccc2F)c1 (centres unmarked) [Compound 53]")
"true"
>>> classlabel("O=C1NCC(c2ccccc2Cn2ccc(C(F)(F)F)n2)C1C(=O)Nc1ccccc1F (centres unmarked) [Compound 59]")
"false"
>>> classlabel("O=C1NCC(c2cccc(COc3ccccc3)c2)C1C(=O)Nc1ccc(F)c(F)c1F (centres unmarked) [Compound 17]")
"false"
>>> classlabel("CN(C)N=Cc1cccc(C2CN(C)C(=O)C2C(=O)Nc2ccccc2F)c1 (centres unmarked) [Compound 54]")
"false"
>>> classlabel("CN1C[C@H](c2cccc(Oc3ccc(F)cn3)c2)[C@@H](C(=O)Nc2ccc(F)c(F)c2F)C1=O [Compound 87]")
"true"

Asked: Determine whether this compound has Plant response rating, Foxtail, Giant no lower than 80: CN1CC(c2cccc(Oc3ncc(F)cn3)c2)C(C(=O)Nc2cccc(F)c2F)C1=O (single isomer, unassigned) [Compound 38]
Given back: true

Asked: Determine whether this compound has Plant response rating, Foxtail, Giant no lower than 80: O=C1NCC(c2cccc(OCc3ccccc3)c2)C1C(=O)Nc1ccccc1Cl (centres unmarked) [Compound 67]
Given back: false

====

Examples of molecules with documented Plant response rating, Blackgrass follow.
# Tested on: blackgrass (Alopecurus myosuroides)
# assayComment: Test A postemergence, blackgrass
# Format: in vivo
# settings: 125 g ai/ha, visual injury, 0 to 100 scale (0 no effect, 100 complete control), approximately 10 days
Hey, just send me the number, nothing else.

Consider the following illustrative entries.
>>> reportedvalue("O=C1NCC(c2cccc(Cn3ccc(C(F)(F)F)n3)c2)C1C(=O)Nc1cccc(F)c1F (stereo not drawn) [Compound 25]")
0
>>> reportedvalue("O=C1NCC(c2cccc(COc3ccccc3)c2)C1C(=O)Nc1ccc(F)c(F)c1F (stereo not drawn) [Compound 17]")
0
>>> reportedvalue("O=C1NCC(c2cccc(OCc3ccco3)c2)C1C(=O)Nc1cccc(F)c1F (stereo not drawn) [Compound 9]")
0

Kindly consider the entry below.
Asked: What value of measured Plant response rating, Blackgrass is listed for O=C1NCC(c2cccc(OCC3OCCO3)c2)C1C(=O)Nc1ccccc1Cl (stereo not drawn) [Compound 6] ?
Given back: 0

====

# Test system: foxtail, giant (Setaria faberii)
# assayComment: Test A postemergence, giant foxtail
# Type: in vivo
# settings: 500 g ai/ha, visual injury, 0 to 100 scale (0 no effect, 100 complete control), approximately 10 days
Binary label based on Plant response rating, Foxtail, Giant with cut-off 50: below gives condition met, not below gives condition not met.

Below are worked cases with known answers.
>>> classlabel("O=C1NCC(c2cccc(OCc3ccccc3)c2)C1C(=O)Nc1cccc(F)c1F (stereo not drawn)")
"condition met"
>>> classlabel("CN1CC(c2cccc(Oc3ncc(F)cn3)c2)C(C(=O)Nc2ccccc2F)C1=O (single isomer, unassigned)")
"condition not met"
>>> classlabel("O=C1NCC(c2cccc(OCc3ccccc3)c2)C1C(=O)Nc1ccccc1Cl (stereo not drawn)")
"condition met"
>>> classlabel("CN1CC(c2cccc(Oc3ncc(F)cn3)c2)C(C(=O)Nc2cccc(F)c2F)C1=O (single isomer, unassigned)")
"condition not met"

Asked: Please check: Plant response rating, Foxtail, Giant for O=C1NCC(c2cccc(Oc3ncc(Cl)cn3)c2)C1C(=O)Nc1ccccc1F (stereo not drawn) , strictly under 50 or not?
Given back: condition not met

Asked: Please check: Plant response rating, Foxtail, Giant for CN1CC(c2cccc(Oc3ccc(F)cc3)c2)C(C(=O)Nc2cccc(F)c2F)C1=O (single isomer, unassigned) , strictly under 50 or not?
Given back: condition not met

Asked: Please check: Plant response rating, Foxtail, Giant for O=C1NCC(c2cccc(OCC3OCCO3)c2)C1C(=O)Nc1ccccc1Cl (stereo not drawn) , strictly under 50 or not?
Given back: condition not met

Asked: Please check: Plant response rating, Foxtail, Giant for O=C1NCC(c2cccc(Oc3ccc(F)cn3)c2)C1C(=O)Nc1ccccc1F (single isomer, unassigned) , strictly under 50 or not?
Given back: condition not met

Asked: Please check: Plant response rating, Foxtail, Giant for O=C1NCC(c2cccc(Cn3ccc(C(F)(F)F)n3)c2)C1C(=O)Nc1ccc(F)cc1F (stereo not drawn) , strictly under 50 or not?
Given back: condition met

Asked: Please check: Plant response rating, Foxtail, Giant for O=C1NCC(c2cccc(Oc3ncc(F)cn3)c2)C1C(=O)Nc1ccccc1F (single isomer, unassigned) , strictly under 50 or not?
Given back: condition not met

Asked: Please check: Plant response rating, Foxtail, Giant for O=C1NCC(c2cccc(Oc3ccccn3)c2)C1C(=O)Nc1ccccc1Cl (stereo not drawn) , strictly under 50 or not?
Given back: condition met

Asked: Please check: Plant response rating, Foxtail, Giant for CC1(COc2cccc(C3CNC(=O)C3C(=O)Nc3cccc(F)c3F)c2)COC1 (stereo not drawn) , strictly under 50 or not?
Given back: condition not met

Asked: Please check: Plant response rating, Foxtail, Giant for O=C1NCC(c2cccc(Oc3ccccn3)c2)C1C(=O)Nc1ccc(F)c(F)c1F (stereo not drawn) , strictly under 50 or not?
Given back: condition not met

Asked: Please check: Plant response rating, Foxtail, Giant for O=C1NCC(c2cccc(OCc3ccccc3)c2)C1C(=O)Nc1ccc(F)c(F)c1F (stereo not drawn) , strictly under 50 or not?
Given back: condition met

Asked: Please check: Plant response rating, Foxtail, Giant for CN1CC(c2cccc(OC(F)(F)C(F)OC(F)(F)F)c2)C(C(=O)Nc2ccccc2F)C1=O (stereo not drawn) , strictly under 50 or not?
Given back: condition not met

Asked: Please check: Plant response rating, Foxtail, Giant for O=C1NCC(c2cccc(Cn3cncn3)c2)C1C(=O)Nc1ccccc1F (stereo not drawn) , strictly under 50 or not?
Given back: condition met

Asked: Please check: Plant response rating, Foxtail, Giant for CN1CC(c2cccc(Oc3ccc(F)cn3)c2)C(C(=O)Nc2ccccc2F)C1=O (single isomer, unassigned) , strictly under 50 or not?
Given back: condition not met

Asked: Please check: Plant response rating, Foxtail, Giant for CN1CC(c2cccc(Oc3ccc(C(F)(F)F)cn3)c2)C(C(=O)Nc2cccc(F)c2F)C1=O (single isomer, unassigned) , strictly under 50 or not?
Given back: condition not met

Asked: Please check: Plant response rating, Foxtail, Giant for CN1CC(c2cccc(Oc3ccc(F)cn3)c2)C(C(=O)Nc2cccc(F)c2F)C1=O (single isomer, unassigned) , strictly under 50 or not?
Given back: condition not met

====

# Test system: corn (Zea mays)
# assayComment: Test A postemergence, corn
# Assay type: in vivo
# settings: 125 g ai/ha, visual injury, 0 to 100 scale (0 no effect, 100 complete control), approximately 10 days
metricName: Plant response rating, Corn
Hey, just send me the number, nothing else.

Consider the following illustrative entries.
>>> reportedvalue("O=C1NCC(c2cccc(OCc3ccco3)c2)C1C(=O)Nc1ccccc1F (centres unmarked)")
0
>>> reportedvalue("O=C1NCC(c2cccc(Cn3cncn3)c2)C1C(=O)Nc1cccc(F)c1F (centres unmarked)")
0
>>> reportedvalue("CC1(COc2cccc(C3CNC(=O)C3C(=O)Nc3cccc(F)c3F)c2)COC1 (centres unmarked)")
0
>>> reportedvalue("CN1CC(c2cccc(Oc3ncc(F)cn3)c2)C(C(=O)Nc2cccc(F)c2F)C1=O (single isomer, unassigned)")
90

Kindly consider the entry below.
Asked: Can you look up Plant response rating, Corn on corn (Zea mays) for O=C1NCC(c2cccc(COc3ccccc3)c2)C1C(=O)Nc1ccccc1F (centres unmarked) ?
Given back: 0

====

# System: ragweed (common ragweed, Ambrosia elatior)
# assayComment: Test A preemergence, ragweed
# Type: in vivo
# settings: 500 g ai/ha, 0 to 100 scale (0 no effect, 100 complete control)
Examples of compounds with documented Plant response rating, Ragweed follow.
Hey, just send me the number, nothing else.

Consider the following illustrative entries.
>>> reportedvalue("O=C1NCC(c2cccc(OCc3ccco3)c2)C1C(=O)Nc1ccccc1C(F)(F)F (centres unmarked)")
0
>>> reportedvalue("O=C1NCC(c2ccccc2Cn2ccc(C(F)(F)F)n2)C1C(=O)Nc1ccc(F)c(F)c1F (centres unmarked)")
0
>>> reportedvalue("CN1CC(c2cccc(Oc3ccc(C(F)(F)F)cn3)c2)C(C(=O)Nc2cccc(F)c2F)C1=O (single isomer, unassigned)")
60
>>> reportedvalue("O=C1NCC(c2cccc(Cn3cccn3)c2)C1C(=O)Nc1ccccc1F (centres unmarked)")
0

Asked: Can you look up Plant response rating, Ragweed on ragweed (common ragweed, Ambrosia elatior) for O=C1NCC(c2cccc(OCc3ccco3)c2)C1C(=O)Nc1ccccc1Cl (centres unmarked) ?
Given back: 0

Asked: Can you look up Plant response rating, Ragweed on ragweed (common ragweed, Ambrosia elatior) for O=C1NCC(c2cccc(OCc3ccccc3)c2)C1C(=O)Nc1ccccc1Cl (centres unmarked) ?
Given back: 0

Asked: Can you look up Plant response rating, Ragweed on ragweed (common ragweed, Ambrosia elatior) for O=C1NCC(c2cccc(Oc3ncc(Cl)cn3)c2)C1C(=O)Nc1cccc(F)c1F (centres unmarked) ?
Given back: 0

Asked: Can you look up Plant response rating, Ragweed on ragweed (common ragweed, Ambrosia elatior) for O=C1NCC(c2cccc(Cn3cccn3)c2)C1C(=O)Nc1ccccc1Cl (centres unmarked) ?
Given back: 0
